# Test system: wild oat
# Method Notes: Test B pre/postemergence wild oat
# Assay type: in vivo, Avena fatua
# Experimental Conditions: Rate 500 g/ha, Postemergence; scale 0 to 10, 0 no effect, 10 complete control
Catalogue of Plant response rating, Wild oats readings, one per entry.

Below: 6 molecules and their reported Plant response rating, Wild oats.
CC(C)N(C(=O)n1oc(=O)n(CC2CCOC2)c1=O)c1ccc(F)cc1 (stereo not shown) [Compound 375]; 8
CC(C)N(C(=O)n1oc(=O)n(N2C(C)CCCC2C)c1=O)c1ccc(F)cc1F (stereo not shown) [Compound 383]; 0
CC(C)N(C(=O)n1oc(=O)n(C)c1=O)c1ccc(F)cc1F [Compound 368]; 5
CCOC(=O)C(C)N(C(=O)n1oc(=O)n(C)c1=O)c1ccc(F)cc1 (stereo not shown) [Compound 365]; 0
CC(C)N(C(=O)n1oc(=O)n(C2CC3CCC2C3)c1=O)c1ccccc1 (stereo not shown) [Compound 328]; 0
CC(C)N(C(=O)n1oc(=O)n(C2(C)CC2)c1=O)c1ccc(Cl)cc1 [Compound 361]; 6

Turning to the following molecule.
Req: Hi! What's the reported Plant response rating, Wild oats for CC(C)N(C(=O)n1oc(=O)n(C2CCC2)c1=O)c1ccc(F)cc1F [Compound 351] on wild oat?
Resp: 5
